// reported Plant response rating, Morningglory per item
system: morningglory (Ipomoea spp.); experiment: Test A pre-/postemergence: morningglory; assay type: in vivo; conditions: Preemergence, 500 g ai/ha; 0 to 100 scale, 0 is no effect, 100 is complete control
METRIC NAME: Plant response rating, Morningglory

| MOLECULE | ENDPOINT VALUE |
| --- | --- |
| Cc1nn(-c2cccc(C(F)(F)F)c2)nc1Oc1ccnc(C(F)(F)F)c1 [Compound 40] | 10 |
| CSc1ccccc1-n1nc(C)c(C(=O)c2cccc(C(F)(F)F)c2)n1 [Compound 6] | 0 |
| Cc1nn(-c2ccc(F)cc2)nc1Oc1ccc(F)c(C(F)(F)F)c1 [Compound 56] | 10 |
| Cc1nn(-c2ccncc2)nc1C(=O)c1cccc(C(F)(F)F)c1 [Compound 22] | 0 |
| CSc1ccc(-n2nc(C)c(C(=O)c3cccc(C(F)(F)F)c3)n2)cc1 [Compound 93] | 0 |
| Cc1nn(-c2cncc(C(F)(F)F)c2)nc1C(=O)c1cccc(C(F)(F)F)c1 [Compound 66] | 0 |
| Cc1nn(-c2ccc(C(F)(F)F)nc2)nc1C(=O)c1cccc(C(F)(F)F)c1 [Compound 73] | 10 |
| Cc1nn(-c2ccc(F)cc2)nc1Cn1cnc(C(F)(F)F)c1Cl [Compound 36] | 0 |
| Cc1nn(-c2cccc(C(F)(F)F)n2)nc1C(=O)c1cccc(C(F)(F)F)c1 [Compound 57] | 0 |
| Cc1nn(-c2ccccc2Cl)nc1C(=O)c1cccc(C(F)(F)F)c1 [Compound 5] | 0 |
| Cc1nn(-c2ccnc(Cl)c2)nc1C(=O)c1cccc(C(F)(F)F)c1 [Compound 4] | 40 |
| Cc1nn(-c2ccc(F)cc2)nc1Oc1cccc(OC(F)(F)F)c1 [Compound 100] | 0 |
| Cc1nn(-c2ccc(Cl)cc2)nc1C(=O)c1cccc(C(F)(F)F)c1 [Compound 42] | 10 |

* * *

tested on: lambsquarters (Chenopodium album); experiment: Test C pre-/postemergence: lambsquarters; type: in vivo; conditions: Preemergence, 62 g ai/ha; scale of 0 to 100, 0 is no effect, 100 is complete control
// reported Plant response rating, Lambsquarters per item

| SMILES NOTATION | Plant response rating, Lambsquarters |
| --- | --- |
| CCOc1nn(-c2ccc(F)cc2)nc1Cc1ccnc(C(F)F)c1 | 80 |
| CCCc1nn(-c2ccc(C(F)(F)F)c(F)c2)nc1Oc1ccnc(C(F)(F)F)c1 | 100 |
| Cc1nn(-c2ccc(F)c(F)c2)nc1Oc1ccnc(C(F)(F)F)c1 | 85 |
| Cc1nn(-c2ccc(F)cc2)nc1Oc1ccnc(C(F)(F)F)c1 | 95 |

* * *

tested on: velvetleaf (Abutilon theophrasti); assay: Test C pre-/postemergence: velvetleaf; assay type: in vivo; details: Postemergence, 62 g ai/ha; scale 0 to 100 (0 no effect, 100 complete control)

| COMPOUND | Plant response rating, Velvetleaf |
| --- | --- |
| Cc1nn(-c2ccc(F)cc2)nc1Cc1ccnc(C(F)(F)F)c1 [Compound 16] | 65 |
| Cc1nn(-c2ccc(C(F)(F)F)cc2)nc1Cc1ccnc(C(F)(F)F)c1 [Compound 47] | 70 |
| Cc1nn(-c2ccc(F)c(F)c2)nc1Oc1ccnc(C(F)(F)F)c1 [Compound 145] | 35 |
| Cc1nn(-c2ccnc(C(F)(F)F)c2)nc1Cc1ccnc(C(F)(F)F)c1 [Compound 137] | 55 |
| CCOc1nn(-c2ccc(F)cc2)nc1Cc1ccnc(C(F)F)c1 [Compound 195] | 50 |
